# system_tested: PGF synthase (Homo sapiens)
# Sequence (P42330 whole entry): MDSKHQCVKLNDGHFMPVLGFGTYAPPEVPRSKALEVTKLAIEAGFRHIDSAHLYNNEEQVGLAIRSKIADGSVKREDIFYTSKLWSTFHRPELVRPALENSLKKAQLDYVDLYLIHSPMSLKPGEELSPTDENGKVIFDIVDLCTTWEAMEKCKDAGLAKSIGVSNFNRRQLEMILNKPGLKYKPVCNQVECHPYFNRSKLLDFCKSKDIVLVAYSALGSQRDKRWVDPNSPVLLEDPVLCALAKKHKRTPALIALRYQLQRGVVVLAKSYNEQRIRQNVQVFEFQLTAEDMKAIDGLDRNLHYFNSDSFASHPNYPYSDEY
assay_readout: IC50 (µM)
Kindly provide the numeric value in µM only, without the unit symbol.

Fill: IC50 (PGF synthase (Homo sapiens)) for this compound O=C1NC(=O)C(=Cc2ccc(-c3ccc(C(=O)O)cc3)o2)S1
4

Numbers sourced from patent US7294641B2.
